Tested on: DLD-1
assay-overview: NCI tumour cell line growth inhibition, 48 h
The source made the active and inactive calls. No stated cut-off is given here; in the data, active = GI50 up to about 1.1 µM and inactive = higher.
Reported GI50 values for a set of molecules
readout: GI50

molecule	target-desc	result
CCOC(OC1=C(C#N)CCCC1)C(CC)[Se]c1ccccc1[N+](=O)[O-] (stereo unspecified)	DLD-1	17.9 µM (inactive)
O=P(Nc1cccc(Cl)c1)(Oc1ccccc1)N(CCCl)CCCl (stereo unspecified)	DLD-1	14.4 µM (inactive)
Ic1ncnc2c1ncn2C1CCCO1 (stereo unspecified)	DLD-1	> 100 µM (inactive)
COc1ccc2c(c1)CCc1c(C(C)=O)c3ccccc3n1C2	DLD-1	42.4 µM (inactive)
CC(C)=CC(=O)OC1C2C(C)C(=O)OC2C(O)C(C)C2C=CC(=O)C21C (stereo unspecified)	DLD-1	1.14 µM (inactive)
O=C(c1ccccc1)[C@H]1Nc2cnccc2C2c3ccccc3CC21 (stereo partly specified)	DLD-1	7.01 µM (inactive)

* * *

Test system: HL-60
assay-overview: NCI tumour cell line growth inhibition, 48 h
Active and inactive are the calls of the source. No stated cut-off is given here; in the data, active = GI50 up to about 1.1 µM and inactive = higher.
Possible outcomes: Yes = active, No = inactive

molecule	label-value
COc1cc(C2C3=C(CCC3=O)Oc3cc4c(cc32)OCO4)cc(OC)c1OC (stereo unspecified)	Yes
Cn1c(=O)n(CC2CS2)c2ccccc21 (stereo unspecified)	No
COc1ccc(CNc2nc3cc(C(F)(F)F)ccc3nc2-c2ccccc2)cc1OC	No
Cc1nc2ccc(NCCN(C)C)c3c(=O)c4ccccc4n1c23	No
CCOc1ccccc1NC(=O)CCC(=O)NN	No
O=[N+]([O-])c1cccc(-c2oc(/C=N/c3ccccc3)c([N+](=O)[O-])c2-c2cccc([N+](=O)[O-])c2)c1	No
CC[C@@H](/C=C\CCC1(C[C@H](O)CCC=C(C)C)OCCO1)O[Si](C(C)C)(C(C)C)C(C)C	No
C1CC[C@H]2SSC3CCCC[C@H]3SSC2C1 (stereo partly specified)	No
Cc1cc(N(CCC#N)CCC#N)ccc1/N=N/c1cccc(C(=O)O)c1	No
COc1cc([C@@H]2c3cc4c(cc3[C@@H](/N=C/c3ccc(C(=O)O[C@H]5C[C@H]6OC[C@@]6(OC(C)=O)[C@H]6[C@H](OC(=O)c7ccccc7)[C@]7(O)C[C@H](OC(=O)[C@H](OC(=O)c8ccc(/C=N/[C@@H]9c%10cc%11c(cc%10[C@@H](c%10cc(OC)c(O)c(OC)c%10)[C@H]%10C(=O)OC[C@@H]%109)OCO%11)cc8)[C@@H](NC(=O)c8ccccc8)c8ccccc8)C(C)=C([C@@H](OC(C)=O)C(=O)[C@]56C)C7(C)C)cc3)C3COC(=O)C32)OCO4)cc(C)c1O (stereo partly specified)	No
O=[N+]([O-])c1cccc(/C=N\NS(=O)(=O)c2ccc(Cl)cc2)c1O	No

* * *

Test system: Hs-578T
assay-overview: NCI tumour cell line growth inhibition, 48 h
Activity calls are given as the source filed them. Cut-off read from the data, not from the text of the source: active = GI50 up to about 1.1 µM and inactive = higher.
readout: GI50

molecule	result
Cc1nc2ccc(Cl)cc2c(-n2ccnc2)c1CCn1ccnc1	12.9 µM (inactive)
CN1N=C(c2ccncc2)OC1c1ccc(C(F)(F)F)cc1 (stereo unspecified)	> 100 µM (inactive)
O=S(=O)(N=S(c1ccc(Cl)cc1)c1ccc(Cl)cc1)c1ccccc1	56.9 µM (inactive)
c1ccc(C2C3=C(CCCC3)Nc3nc4cc5ccccc5cc4n32)cc1 (stereo unspecified)	> 100 µM (inactive)
CC(C)(CC1(C)NC(=O)NC1=O)OCc1ccccc1 (stereo unspecified)	> 100 µM (inactive)
CCOc1cc(NC(C)=O)ccc1C(=O)NNS(=O)(=O)c1ccc(NC(C)=O)cc1	41.7 µM (inactive)

* * *

Reported GI50 values for a set of molecules
System: SK-MEL-5
assay-overview: NCI tumour cell line growth inhibition, 48 h
Calls of active or inactive are those of the source. Cut-off read from the data, not from the text of the source: active = GI50 up to about 1.1 µM and inactive = higher.
readout: GI50

molecule	result
NC1(c2cc3ccccc3s2)CCCC1	24.1 µM (inactive)
Cc1ccc(S(=O)(=O)N/N=C(\c2nc3ccc(Cl)cc3[nH]c2=O)C(O)c2ccco2)cc1 (stereo not given)	> 100 µM (inactive)
C=C1C(=O)O[C@@H]2C[C@]3(C)[C@@H](C[C@H]12)[C@](C)(O)CC[C@@H]3O	91.8 µM (inactive)
COc1ccc(OC)c2sc(N3C(=O)/C(=C/c4ccc(Cl)cc4)N=C3c3ccccc3)nc12	65 µM (inactive)
N#Cc1ccc(OCc2nc3cc(C(F)(F)F)ccc3nc2-c2ccccc2)cc1	> 100 µM (inactive)
COc1cc(C2C3=C(CCC3=O)Oc3cc4c(cc32)OCO4)cc(OC)c1OC (stereo not given)	0.237 µM (active)
N#Cc1c(C#N)c(SSc2c(C#N)c(C#N)c(N)n2-c2ccc(F)cc2)n(-c2ccc(F)cc2)c1N	17.4 µM (inactive)
ClC1=NN=C(c2c[nH]c3ccccc23)CC1NCc1ccccc1 (stereo not given)	> 100 µM (inactive)
O=C1CSC2=NC3=C(COC/C3=C\c3ccc(F)cc3)C(c3ccc(F)cc3)N12 (stereo not given)	71.4 µM (inactive)
c1ccc(C2C3=C(CCCC3)Nc3nc4cc5ccccc5cc4n32)cc1 (stereo not given)	> 100 µM (inactive)
CCCCCCCCCCCC(=O)OC[C@H](C[As](=O)(O)O)OC(=O)CCCCCCCCCCC	1.99 µM (inactive)
COc1ccc(CNc2nc3cc(C(F)(F)F)ccc3nc2-c2ccccc2)cc1OC	17.9 µM (inactive)
Cc1ccccc1-n1c(=O)c2ncn(CCCl)c2n(-c2ccccc2C)c1=S	> 100 µM (inactive)
c1ccc(C2=Nn3c(CCCCCCCCc4nnc5n4N=C(c4ccccc4)CS5)nnc3SC2)cc1	> 100 µM (inactive)
COc1ccc(/N=C2/SC(=N/N=c3\sc4ccccc4n3C)S/C2=N/c2ccc(OC)cc2)cc1	98.9 µM (inactive)
CN(CCCNCc1ccccn1)Cc1ccccc1O	21 µM (inactive)
CN(C)CCNC(=O)c1cccc(N(C)C(=O)c2ccccc2)c1[N+](=O)[O-]	> 100 µM (inactive)
N#CCCN(CCCN(C(=O)Nc1ccccc1)c1ccccc1)C(=O)Nc1ccccc1	> 100 µM (inactive)
c1ccc(-c2nnc(-c3ccccn3)c3c2C[C@@H]2C[C@@H]4Cc5c(-c6ccccn6)nnc(-c6ccccn6)c5[C@@H]4[C@H]32)nc1	27.8 µM (inactive)
CC1(C)CC(C2=NCCO2)CC(C)(C)N1	> 100 µM (inactive)
Nc1cc(Cl)cc2cc(Cl)cnc12	> 100 µM (inactive)
CCOC(=O)/C=C\[C@H]1OC(C)(C)O[C@H]1[C@H](O)[C@H]1COC(C)(C)O1	18.2 µM (inactive)
CC(C)=CCCC1(C)C=Cc2c(c(C)cc3c2[nH]c2cc(O)ccc23)O1 (stereo not given)	> 25 µM (inactive)
O=C(c1ccc(O)cc1O)C1C(c2ccc(O)cc2)OC(c2ccc(O)cc2)C1C(=O)c1ccc(O)cc1O (stereo not given)	16.1 µM (inactive)
O=C1C=CC(=O)c2c(O)c(N(CCCl)CCCl)c(Cl)c(O)c21	4.59 µM (inactive)
COc1cc(C(O)CCBr)c(OC)cc1C (stereo not given)	6.18 µM (inactive)
Nc1ccc2c(c1)S(=O)(=O)c1cc(O)ccc1O2	> 100 µM (inactive)
CC1(n2nc(-c3ccccc3)n(-c3ccccc3)c2=O)CSC1	> 100 µM (inactive)
O=P1(O)c2ccccc2Nc2cc(C(F)(F)F)ccc21	> 100 µM (inactive)
CCOCc1c(C)cc(C)c(C2C(C(=O)c3ccccc3)N3c4ccccc4C=CC3C2(C#N)C(=O)OCC)c1C (stereo not given)	14.8 µM (inactive)
COc1ccc(/C(Cl)=C(\CN(C)C)c2ccc(OC)c(OC)c2)cc1OC.[B]	> 100 µM (inactive)
COc1ccc(/C=N/NC(=O)c2ccc(O)c(CN(C)C)c2)cc1	> 100 µM (inactive)
CCN(CC)c1ccc(C2SCC(=O)N2c2ccc(NC(=O)c3ccc(N4C(=O)CSC4c4ccc(N(CC)CC)cc4)cc3)cc2)cc1 (stereo not given)	> 100 µM (inactive)
CC1(C)[C@@H]2C[C@H]1c1cnc(-c3ccccn3)cc1C2[C@@H]1c2cc(-c3ccccn3)ncc2[C@@H]2C[C@H]1C2(C)C (stereo not given in full)	49.7 µM (inactive)
COC1=CC2(C=CC1=O)CCNC1=C2C(=O)c2nc[nH]c2C1=O (stereo not given)	> 100 µM (inactive)
CCOC(=O)NNC(=O)NCCCCNC(=O)NNC(=O)OCC	> 100 µM (inactive)
CCOC(=O)C1C(c2ccc(OC)cc2)c2c(n[nH]c2O)CC1(C)O (stereo not given)	> 100 µM (inactive)
COc1ccc(N2C(=O)/C(=C/c3ccc(N(CCC#N)CCC#N)cc3)N=C2c2ccccc2)c(OC)c1	> 100 µM (inactive)
COc1cc(/C=C2/SC(c3ccccc3)N(c3cccc(Cl)c3)C2=O)cc(OC)c1OC (stereo not given)	29.5 µM (inactive)
CC(C)(C)n1c(=O)n(C(=O)C(Cl)(Cl)Cl)n(C(=O)C(Cl)(Cl)Cl)c1=O	> 100 µM (inactive)

The measured values listed here are drawn from ChEMBL document CHEMBL1201862.
